This listing pairs binders with measured reactivity (MFI of chimeric receptor/MFI of wild type CXCR4 x 100%).
target-or-test-system: 2444b CXCR2/CXCR4 chimera (human) (UniProt P25025)
Sequence (P25025 other isoform, or with tags, fused parts or gaps mutant limits assumed): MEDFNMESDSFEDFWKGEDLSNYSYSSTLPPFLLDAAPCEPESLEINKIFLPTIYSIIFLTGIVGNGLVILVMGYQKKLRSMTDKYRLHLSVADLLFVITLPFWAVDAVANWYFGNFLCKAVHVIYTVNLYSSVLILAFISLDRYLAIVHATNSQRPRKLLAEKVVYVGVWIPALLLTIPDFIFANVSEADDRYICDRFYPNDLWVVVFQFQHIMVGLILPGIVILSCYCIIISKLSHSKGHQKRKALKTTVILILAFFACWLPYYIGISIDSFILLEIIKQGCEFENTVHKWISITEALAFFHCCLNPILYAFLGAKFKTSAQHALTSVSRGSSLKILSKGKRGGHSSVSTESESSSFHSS
method-notes: flow cytometry, scFv-Fc on transfected 293T cells, FITC anti-human IgG
The response must be a number in % with no trailing unit.

In the examples that follow, each entry is paired with its recorded reactivity (MFI of chimeric receptor/MFI of wild type CXCR4 x 100%).
6R-Fc (Fc fusion, part only; not given: VH-VL linker, hinge and IgG1 Fc, not shown: another chain or arm of the molecule; a dimerising Fc or GST; small tags and cut ends) VH: QVQLQQSGPGLVKPSQTLSLTCAVSGDSVSSNFVAWNWIRQSPSRGLEWLGRTYYRSRWYNDYAVSVQSRIRVTPDTSKNQFSLHLDSVTPEDTAVYYCARGQHSGFDFWGQGTLVTVSS VL: QSVLTQPPSVSKGLRQTATLTCTGNSNNVGNQGAAWLQQHQGHPPKLLSYRNNNRPSGISERFSASRSGNTASLTITGLQPEDEADYYCSAWDNRLKTYVFGTGGKVTVL : 4.7
20-Fc (Fc fusion, part only; not given: linker and human IgG1 hinge-Fc, not shown: another chain or arm of the molecule; a dimerising Fc or GST; small tags and cut ends) VH: EVQLVQSGGGLVQPGGSLRLSCAASGFTFSSYAMSWVRQAPGKGLEWVANIKQDGSEKYYVDSVKGRFTISRDNAKNSLYLQMNSLRAEDTAVYYCARDQVSGITIFGGKWRSPDVWGQGTTVTVSS VL: SSELTQDPAVSVALGQTVRITCQGDSLRSYYASWYQQKPGQAPVLVIYGKNNRPSGIPDRFSGSKSHNTAYLTITGAQAEDEADYFCNSRSGSQRVFGGGTKLTVL : 12.9

Recorded reactivity (MFI of chimeric receptor/MFI of wild type CXCR4 x 100%) of 2N-Fc (Fc fusion, part only; not given: linker and human IgG1 hinge-Fc, not shown: another chain or arm of the molecule; a dimerising Fc or GST; small tags and cut ends) VH: EVQLVESGGGVVQPGRSLRLSCAASGFTFSSYGMHWVRQAPGKGLEWVAVISYDGSNKYYADSVKGRFTISRDNSKNTLYLQVSSLRAEDTAVYYCVRDLVAAAGTAFDIWGQGTTVTVSS VL: QPVLTQPRSVSGSPGQSVTISCTGTISDVGGHNFVSWYQQNPGKAPKLIIFEVTKRPAGVPDRFSGSKSGNTASLTVSGLQAEDEGEYYCSSYGGSNDVIFGGGTKLSVL , please.
8.3
